Data provenance is ChEMBL document CHEMBL3217446.

Target: Cruzipain (Trypanosoma cruzi)
Experiment: Inhibition of Trypanosoma cruzi cruzipain using Z-Phe-Arg-AMC as substrate at 2 uM incubated for 5 mins prior to substrate addition measured after 10 mins by fluorescence assay
Listed compounds paired with reported inhibition
measured_metric: inhibition (%)

>>> print(df.to_string())
                     smiles_representation  measured_metric  unit_descriptor  reported_measurement
0              C/C(=N/NC(N)=S)c1cccc(Br)c1       inhibition                %                    79
1           C/C(=N\NC(N)=[Se])c1cccc(Br)c1       inhibition                %                    87
2          NC(=[Se])N/N=C/c1ccc(Cl)c(Cl)c1       inhibition                %                    96
3        NC(=[Se])N/N=C/c1cccc(C(F)(F)F)c1       inhibition                %                    88
4  NC(=[Se])NN=C(c1cccc(Br)c1)c1cccc(Br)c1       inhibition                %                    98
5    CCCC/C(=N/NC(N)=[Se])c1ccc(Cl)c(Cl)c1       inhibition                %                    98
6              NC(=[Se])N/N=C/c1cccc(Br)c1       inhibition                %                    93
